Origin of measurements: patent US11147812B2

pKi: −log10 of the molar value.
So I've got pKi readings for Rho kinase 2 (ROCK2) (Homo sapiens), take a look.

> print(dat)
                                   compound                      target.of.assay  measured.quantity  endpoint.value
1  Cc1c[nH]c2nccc(Oc3ccc(C(N)CC(=O)N4CCN(Cc5ccccc5)CC4)cc3)c12 (single isomer, unassigned)  Rho kinase 2 (ROCK2) (Homo sapiens)                pKi          > 8.52
2  Cc1c[nH]c2nccc(Oc3ccc(CC(CN)C(=O)NC4CCN(C)CC4)cc3F)c12 (centres unmarked)  Rho kinase 2 (ROCK2) (Homo sapiens)                pKi          > 8.52
3  Cc1c[nH]c2nccc(Oc3ccc(CC(CN)C(=O)N4C[C@@H]5C[C@H]4CN5C)cc3F)c12 (single isomer, unassigned)  Rho kinase 2 (ROCK2) (Homo sapiens)                pKi    7.52 to 8.52
4  Cc1c[nH]c2nccc(Oc3ccc([C@H]4CNC[C@@H]4C(=O)NCc4ccccc4)cc3)c12 (single isomer, unassigned) [Example 17B]  Rho kinase 2 (ROCK2) (Homo sapiens)                pKi    7.52 to 8.52
5  NCC(Cc1ccc(Oc2ccnc3[nH]ccc23)cc1)C(=O)NC1CCOCC1 (centres unmarked)  Rho kinase 2 (ROCK2) (Homo sapiens)                pKi    7.52 to 8.52

Data request: Field request: pKi | item: Cc1c[nH]c2nccc(Oc3ccc(CC(CN)C(=O)N4CCN(C5CC5)CC4)cc3)c12 (centres unmarked)
Data returned: > 8.52

Data request: pKi for Cc1c[nH]c2nccc(Oc3ccc([C@@H]4CCN[C@H]4C(=O)N4CCNCC4)cc3)c12 (racemic) ?
Data returned: 7.52 to 8.52

----------
List of Ki values.
Molecular target: UniProt:Q13464
Sequence (Q13464 whole entry): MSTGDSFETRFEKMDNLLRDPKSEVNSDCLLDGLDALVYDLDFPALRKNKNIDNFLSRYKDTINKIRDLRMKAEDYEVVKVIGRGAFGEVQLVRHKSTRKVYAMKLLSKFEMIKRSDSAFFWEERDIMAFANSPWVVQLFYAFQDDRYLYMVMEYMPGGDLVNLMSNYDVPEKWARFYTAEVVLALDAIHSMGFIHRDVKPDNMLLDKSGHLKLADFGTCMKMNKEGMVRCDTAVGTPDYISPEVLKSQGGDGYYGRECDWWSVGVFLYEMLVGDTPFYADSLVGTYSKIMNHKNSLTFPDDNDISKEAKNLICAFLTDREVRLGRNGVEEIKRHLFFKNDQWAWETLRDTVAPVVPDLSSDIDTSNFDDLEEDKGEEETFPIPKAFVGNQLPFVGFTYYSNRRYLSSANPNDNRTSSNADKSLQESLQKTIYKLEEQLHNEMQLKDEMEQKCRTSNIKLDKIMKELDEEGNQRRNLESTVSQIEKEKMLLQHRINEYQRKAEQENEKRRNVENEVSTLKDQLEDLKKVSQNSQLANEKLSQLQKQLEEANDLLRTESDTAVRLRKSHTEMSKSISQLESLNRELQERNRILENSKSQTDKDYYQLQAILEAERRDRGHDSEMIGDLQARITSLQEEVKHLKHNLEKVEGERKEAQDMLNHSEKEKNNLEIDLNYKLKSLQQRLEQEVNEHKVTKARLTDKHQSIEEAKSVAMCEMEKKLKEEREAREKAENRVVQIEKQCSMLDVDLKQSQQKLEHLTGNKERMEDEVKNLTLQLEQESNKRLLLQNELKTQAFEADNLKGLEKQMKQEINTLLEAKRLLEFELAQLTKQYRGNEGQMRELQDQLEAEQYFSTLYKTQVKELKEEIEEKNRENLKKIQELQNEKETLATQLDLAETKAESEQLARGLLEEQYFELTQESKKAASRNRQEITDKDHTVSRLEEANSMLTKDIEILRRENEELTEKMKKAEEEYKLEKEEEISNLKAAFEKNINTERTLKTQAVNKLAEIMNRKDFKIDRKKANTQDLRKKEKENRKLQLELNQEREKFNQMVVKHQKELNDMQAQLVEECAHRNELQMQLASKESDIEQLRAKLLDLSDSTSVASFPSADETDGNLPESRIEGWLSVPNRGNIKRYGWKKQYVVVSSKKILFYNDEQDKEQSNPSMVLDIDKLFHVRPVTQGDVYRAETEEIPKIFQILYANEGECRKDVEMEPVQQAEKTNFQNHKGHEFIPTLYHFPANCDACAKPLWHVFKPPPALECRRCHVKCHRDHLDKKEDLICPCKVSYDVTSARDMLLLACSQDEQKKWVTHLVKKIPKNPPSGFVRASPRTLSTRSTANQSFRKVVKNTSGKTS

Recorded Ki, per entry:
> print(dat)
                                   compound  endpoint.value
1  NC(C(=O)NC1CCCCC1)c1ccc(Oc2ccnc3[nH]ccc23)cc1 (centres unmarked)         > 30 nM
2  Cc1c[nH]c2nccc(Oc3ccc([C@H]4CNC[C@@H]4C(=O)NCc4ccccc4)cc3)c12 (single isomer, unassigned) [Example 17A]          < 3 nM
3  NC(C(=O)NC1CCOCC1)c1ccc(Oc2ccnc3[nH]ccc23)cc1 (centres unmarked)         > 30 nM

Data request: Quick one: Ki of NCC(Cc1ccc(Oc2ccnc3[nH]ccc23)cc1)C(=O)N1CCN(Cc2ccccc2)CC1 (single isomer, unassigned) [Example 32B] ?
Data returned: < 3 nM

Data request: Look up Ki for this compound: Cc1c[nH]c2nccc(Oc3ccc([C@H]4CCN[C@@H]4C(=O)NC4CCOCC4)cc3)c12 (racemic)
Data returned: 3 to 30 nM

Data request: Which Ki is listed for Cc1c[nH]c2nccc(Oc3ccc(C(CN)CC(=O)N4CCN(Cc5ccccc5)CC4)cc3)c12 (centres unmarked) ?
Data returned: < 3 nM

Data request: Please report the recorded Ki for Cc1c[nH]c2nccc(Oc3ccc([C@H]4CCN[C@@H]4C(=O)NCCOc4ccccc4)cc3)c12 (racemic) .
Data returned: < 3 nM

Data request: Requested field: Ki. Item: NCC(Cc1ccc(Oc2ccnc3[nH]ccc23)cc1)C(=O)N1CCN(Cc2ccccc2)CC1 (centres unmarked) [Example 32]
Data returned: < 3 nM

Data request: Ki lookup needed for Cc1c[nH]c2nccc(Oc3ccc(CC(CN)C(=O)N4CCN(Cc5ccccc5)CC4)cc3F)c12 (single isomer, unassigned) [Example 29B] , thanks.
Data returned: < 3 nM

Data request: Which Ki value belongs to Cc1c[nH]c2nccc(Oc3ccc([C@H]4CCN[C@@H]4C(=O)NCCc4ccccc4)cc3)c12 (racemic) ?
Data returned: < 3 nM
